Assay: self-splicing fitness, log relative to wild type (ln ratio); higher = more splicing; Tetrahymena group I intron in knt gene, E. coli kanamycin selection, DiMSum; sequences stand for … in CUCUCU…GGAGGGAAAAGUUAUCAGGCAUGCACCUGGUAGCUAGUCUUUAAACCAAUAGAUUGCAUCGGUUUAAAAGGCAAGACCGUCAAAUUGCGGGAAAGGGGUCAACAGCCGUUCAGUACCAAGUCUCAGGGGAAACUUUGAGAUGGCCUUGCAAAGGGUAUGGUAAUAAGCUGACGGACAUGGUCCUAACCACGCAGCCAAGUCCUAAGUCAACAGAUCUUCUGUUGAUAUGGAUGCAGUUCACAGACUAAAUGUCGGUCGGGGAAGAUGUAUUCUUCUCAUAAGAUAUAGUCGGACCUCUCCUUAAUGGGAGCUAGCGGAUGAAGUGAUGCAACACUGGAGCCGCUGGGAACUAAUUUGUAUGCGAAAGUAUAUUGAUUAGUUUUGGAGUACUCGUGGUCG;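 note: selection with 25 µg/mL kanamycin versus none on LB agar overnight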
Conditions: 37 °C

[
  {
    "BIOSEQUENCE": "CAGCAGCAAUAUUACGCACC",
    "self-splicing fitness (ln)": -1.32
  },
  {
    "BIOSEQUENCE": "GGCUAGCAAUAUUACGCCGG",
    "self-splicing fitness (ln)": -2.27
  },
  {
    "BIOSEQUENCE": "CUAUAGCAAUAUUACGGGAG",
    "self-splicing fitness (ln)": -1.87
  },
  {
    "BIOSEQUENCE": "ACCGAGCAAUAUUACGAAUA",
    "self-splicing fitness (ln)": -2.41
  },
  {
    "BIOSEQUENCE": "ACUGAGCAAUAUUACGCAAG",
    "self-splicing fitness (ln)": -1.54
  },
  {
    "BIOSEQUENCE": "GCAUAGCAAUAUUACGGUAA",
    "self-splicing fitness (ln)": -0.658
  },
  {
    "BIOSEQUENCE": "UUGGAGCAAUAUUACGUUAC",
    "self-splicing fitness (ln)": -2.25
  },
  {
    "BIOSEQUENCE": "GGUAAGCAAUAUUACGAGAA",
    "self-splicing fitness (ln)": -2.67
  },
  {
    "BIOSEQUENCE": "UCGCAGCAAUAUUACGUGUA",
    "self-splicing fitness (ln)": -0.901
  },
  {
    "BIOSEQUENCE": "GCAAAGCAAUAUUACGCGGC",
    "self-splicing fitness (ln)": -2.43
  },
  {
    "BIOSEQUENCE": "ACCCAGCAAUAUUACGUAUG",
    "self-splicing fitness (ln)": -1.77
  },
  {
    "BIOSEQUENCE": "ACGGAGCAAUAUUACGAGUU",
    "self-splicing fitness (ln)": -2.54
  },
  {
    "BIOSEQUENCE": "CCCAAGCAAUAUUACGUGCA",
    "self-splicing fitness (ln)": -2.57
  },
  {
    "BIOSEQUENCE": "CGAGAGCAAUAUUACGGAGU",
    "self-splicing fitness (ln)": -1.6
  },
  {
    "BIOSEQUENCE": "CGGGAGCAAUAUUACGGGCA",
    "self-splicing fitness (ln)": -1.14
  },
  {
    "BIOSEQUENCE": "UACAAGCAAUAUUACGUAAG",
    "self-splicing fitness (ln)": -3.05
  }
]
